Origin of measurements: patent US20200289563A1

ASSAYED TARGET: T1, human CD19 (human, UniProt P15391 20-556)
T1 construct: whole, on cells; also called Cluster of Differentiation 19; hPro1
T1 sequence (looked up): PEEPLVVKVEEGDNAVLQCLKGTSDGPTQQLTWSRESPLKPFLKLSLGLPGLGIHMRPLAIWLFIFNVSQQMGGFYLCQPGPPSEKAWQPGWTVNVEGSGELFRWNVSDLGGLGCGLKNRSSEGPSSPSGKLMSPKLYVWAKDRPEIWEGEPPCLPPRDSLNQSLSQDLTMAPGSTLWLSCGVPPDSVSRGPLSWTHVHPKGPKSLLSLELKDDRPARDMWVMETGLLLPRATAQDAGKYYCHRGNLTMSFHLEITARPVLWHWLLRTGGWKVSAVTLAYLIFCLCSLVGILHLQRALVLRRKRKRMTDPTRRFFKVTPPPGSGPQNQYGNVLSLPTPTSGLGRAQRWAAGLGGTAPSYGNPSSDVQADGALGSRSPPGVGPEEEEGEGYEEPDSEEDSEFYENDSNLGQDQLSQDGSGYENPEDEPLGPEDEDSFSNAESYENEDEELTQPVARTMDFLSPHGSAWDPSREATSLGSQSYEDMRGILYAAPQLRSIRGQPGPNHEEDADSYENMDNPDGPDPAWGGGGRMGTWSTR
EXPERIMENTAL DETAILS: flow cytometry on Ramos cells
Reported EC50 values are given for each entry in this list.
Please state the value followed by its unit.

WBP7011_4.225.7 (antibody, mouse IgG2a, V domains shown, also called W7011-4.225.7) VH: EIQLQQSGPELVKPGASVKVSCKASGYAFTSYNMYWVKQSHGKSLEWIGYIDPYNGDTTYNQKFKGKATLTVDKSSSTAYMHLNSLTSEDSAVYYCLTTAYAMDYWGQGTSVTVSS VL: QIVLTQSPAIMSASLGEEITLTCSASSTVNYMHWYQQKSGTSPKLLIYSTSNLASGVPSRFSGSGSGTFYSLTIRSVEAEDAADYYCHQWSSYPYTFGGGTKLEIK | 450 pM

Now look at this entry.
Look at this binder and give its reported EC50. WBP7011_4.56.1 (antibody, V domains shown, also called W7011-4.56.1) VH: EVQLQQSGPELVKPGASVKMSCKASGYTFTNYVIHWVKQKPGQGLEWIGYINPYNDGTEYNEKFKGKATLTSDTSSSTAYMALSSLTSEDSAVYYCTRGPYYYGGSPFDYWGQGTTLTVSS VL: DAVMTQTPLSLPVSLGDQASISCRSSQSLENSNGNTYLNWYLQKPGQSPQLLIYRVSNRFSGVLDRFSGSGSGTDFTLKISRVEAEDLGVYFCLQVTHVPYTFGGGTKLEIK
100 pM
